- assayed.target: HLA-DR DRB1*0101 (human)
- measurement.protocol: competition with 125I-labeled reference peptide, purified HLA
measured.parameter: IC50 (µM)

- QLLLEVEQEIRTFSF (modifications not checked) [Flu.NS2.180]: 11.9
- LKQYDSDEPELRSLS (modifications not checked) [Flu.PA.393]: 17.7
- SIWIELDEIGEDVAP (modifications not checked) [Flu.PA.423]: 13.4
- RREVHIYYLEKANKI (modifications not checked) [Flu.PA.127]: 0.034
- ALQLLFEVEQEIRTF (modifications not checked) [Flu.NS2.178]: 3.49
- RNYFTAEVSHCRATE (modifications not checked) [Flu.PA.446]: 0.627
- FNPMIVELAEKTMKE (modifications not checked) [Flu.PA.12]: 0.048
